Biological target: biphenyl hydrolase-like enzyme (BPHL) (Homo sapiens, UniProt Q86WA6)
Sequence (Q86WA6 38-291): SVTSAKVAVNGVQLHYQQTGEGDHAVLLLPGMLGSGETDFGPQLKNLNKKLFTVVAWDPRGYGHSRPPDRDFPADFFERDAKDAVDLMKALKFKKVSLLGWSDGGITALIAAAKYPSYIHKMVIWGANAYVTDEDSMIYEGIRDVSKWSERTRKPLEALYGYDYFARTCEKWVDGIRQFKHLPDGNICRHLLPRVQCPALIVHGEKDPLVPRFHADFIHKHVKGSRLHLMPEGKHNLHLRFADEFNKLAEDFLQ
Type: biochemical
endpoint-label: % of Control (VACV)
Hi, when you answer, please include the unit after the number. Thanks!

// worked examples, % of Control (VACV) included
> print(dat)
                                   compound  assay.value
1  CC(C)[C@H](N)C(=O)OC[C@H]1O[C@@H](n2cc(F)c(=O)[nH]c2=O)C[C@@H]1O        91.1%
2  NC(CC(=O)O)C(=O)OCC1OC(n2cc(F)c(=O)[nH]c2=O)CC1O (stereo not drawn)         2.3%
3  CC(C)C(N)C(=O)OC[C@H]1O[C@@H](n2cc(F)c(=O)[nH]c2=O)C[C@@H]1OC(=O)C(N)C(C)C (stereo partly drawn)         1.7%
4  NCCCCC(N)C(=O)OCC1OC(n2cc(F)c(=O)[nH]c2=O)CC1OC(=O)C(N)CCCCN (stereo not drawn)         0.0%
5  NC(Cc1ccccc1)C(=O)O[C@H]1C[C@H](n2cc(F)c(=O)[nH]c2=O)O[C@@H]1CO (stereo partly drawn)        24.4%

## Input Using known records, supply % of Control (VACV) for N[C@@H](Cc1ccccc1)C(=O)OC[C@H]1O[C@@H](n2cc(F)c(=O)[nH]c2=O)C[C@@H]1O
## Output 52.8%
